assay: Kinetic solubility of compound at pH 7.4 incubated for 2 hrs by UV-HPLC analysis; format: physicochemical; conditions: buffer, read-out: Kinetic_solubility
Readout kind: solubility kinetic at 2 h (µM)

Some solved entries appear below for comparison.
Structure notation: Cn1ccc2cc(CNC(=O)N3CC(COc4ccc(C(F)(F)F)nc4)C3)ccc21
Unit text: µM
solubility kinetic at 2 h: 1.8
//
Structure notation: O=C(NCc1cnc2[nH]c(Cl)cc2c1)N1CC(COc2ccc(C(F)(F)F)cc2)C1
Unit text: µM
solubility kinetic at 2 h: 4.5
//
Structure notation: Cc1cc2cc(CNC(=O)N3CC4(CC(=O)c5cc(F)ccc5O4)C3)ccc2[nH]1
Unit text: µM
solubility kinetic at 2 h: 36.4

A = Cn1cc(Cl)c2cc(CNC(=O)N3CC(COc4ccc(C(F)(F)F)cc4)C3)cnc21
B = O=C(NCc1ccc2[nH]ccc2c1)N1CC(COc2ccc(C(F)(F)F)c(F)c2)C1
// which entry has the larger solubility kinetic at 2 h value, A or B ? Answer by stating the label of the chosen item.
B

====

test: Kinetic solubility of compound at pH 7.4 incubated for 2 hrs by UV-HPLC analysis; format: physicochemical; details: buffer, read-out: Kinetic_solubility
Readout kind: solubility kinetic at 2 h (µM)

Structure notation: Cc1nnc(-c2cc3cc(CNC(=O)N4CC(COc5ccc(C(F)(F)F)cc5)C4)ccc3[nH]2)o1
Value observed: 5.1
//
Structure notation: O=C(NCc1ccc2[nH]cc(Cl)c2c1)N1CC(COc2ccc(C(F)(F)F)cc2)C1
Value observed: 12
//
Structure notation: Cn1ccc2cc(CNC(=O)N3CC(COc4ccc(F)c(F)c4)C3)ccc21
Value observed: 1.2

A = O=C(NCc1ccc2[nH]ccc2c1)N1CC(COc2ccc(C(F)(F)F)cc2F)C1
B = Cn1ccc2cc(CNC(=O)N3CC4(CC(=O)c5ccccc5O4)C3)ccc21
Compare A and B and name the one whose reported solubility kinetic at 2 h is smaller. Answer by stating the label of the chosen item.
A

====

assay: Efflux ratio of apparent permeability in human Caco-2 cells at 10 uM; format: ADME, cell-based
Readout kind: efflux ratio at 10 µM
Keep the answer to the number alone.

efflux ratio at 10 µM in this record for O=C(NCc1ccc2[nH]ccc2c1)N1CC(COc2ccc(C(F)(F)F)c(F)c2)C1 : 1.3

====

target: Neuronal acetylcholine receptor subunit alpha-7 (Homo sapiens); assay: Positive allosteric modulator activity at human alpha7 nAChR expressed in Flp-In HEK293 cells assessed as increase in calcium influx incubated for 10 mins by fluorescence based analysis
Sequence (P36544 whole entry): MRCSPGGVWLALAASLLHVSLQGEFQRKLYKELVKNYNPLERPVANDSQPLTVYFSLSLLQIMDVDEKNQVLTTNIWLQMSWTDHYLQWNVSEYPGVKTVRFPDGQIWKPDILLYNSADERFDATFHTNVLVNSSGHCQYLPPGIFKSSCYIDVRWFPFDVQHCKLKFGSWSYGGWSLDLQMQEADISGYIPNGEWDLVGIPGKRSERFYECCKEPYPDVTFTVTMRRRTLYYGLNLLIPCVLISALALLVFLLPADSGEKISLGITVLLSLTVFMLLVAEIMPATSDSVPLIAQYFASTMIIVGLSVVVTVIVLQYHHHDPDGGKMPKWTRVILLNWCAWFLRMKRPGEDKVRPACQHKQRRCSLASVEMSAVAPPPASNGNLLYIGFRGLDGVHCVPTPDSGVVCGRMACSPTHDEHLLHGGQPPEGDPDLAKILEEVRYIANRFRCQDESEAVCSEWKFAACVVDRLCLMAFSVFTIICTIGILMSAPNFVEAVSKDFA
Readout kind: EC50 (nM)

a = Cn1ccc2cc(CNC(=O)N3CC(COc4ccc(F)c(F)c4)C3)ccc21
b = Cc1ccc(OCC2CN(C(=O)NCc3ccc4[nH]c(C)c(C)c4c3)C2)cc1
c = Cn1ccc2cc(CNC(=O)N3CC(COc4ccc(C(F)(F)F)cn4)C3)ccc21
rank_up(items): orders items by reported EC50 in ascending numerical order. Hello, could you send the labels back in the order asked? Thank you.
c, a, b

====

test: Metabolic stability in human liver microsome assessed as intrinsic clearance measured per mg of protein incubated for 40 mins; assay type: ADME; conditions: liver microsomes, read-out: CLH
Readout kind: microsomal CLint (µL/min/mg)

Structure notation: Cc1ccc(OCC2CN(C(=O)NCc3ccc4[nH]c(C)c(C)c4c3)C2)cc1
Readout kind: microsomal CLint
Value observed: 323
//
Structure notation: Cn1ccc2cc(CNC(=O)N3CC(COc4ccc(F)cc4F)C3)ccc21
Readout kind: microsomal CLint
Value observed: 48
//
Structure notation: Cc1cc2cc(CNC(=O)N3CC4(CC(=O)c5ccc(F)cc5O4)C3)ccc2[nH]1
Readout kind: microsomal CLint
Value observed: 14
//
Structure notation: Cc1cc2cc(CNC(=O)N3CC(COc4ccc(C(F)(F)F)cc4)C3)ccc2n1C
Readout kind: microsomal CLint
Value observed: 41
//
Structure notation: Cn1cc(Cl)c2cc(CNC(=O)N3CC(COc4ccc(C(F)(F)F)cc4)C3)cnc21
Readout kind: microsomal CLint
Value observed: 97
//
Structure notation: Cn1cc(C#N)c2cc(CNC(=O)N3CC(COc4ccc(C(F)(F)F)cc4)C3)ccc21
Readout kind: microsomal CLint
Value observed: 43
//
Structure notation: Cc1cc2cc(CNC(=O)N3CC4(CC(=O)c5cc(F)ccc5O4)C3)ccc2[nH]1
Readout kind: microsomal CLint
Value observed: 18
//
Structure notation: O=C(NCc1ccc2[nH]ccc2c1)N1CC(COc2ccc(C(F)(F)F)c(F)c2)C1
Readout kind: microsomal CLint
Value observed: 39
//
Structure notation: CCn1ccc2cc(CNC(=O)N3CC(COc4ccc(C(F)(F)F)cc4)C3)ccc21
Readout kind: microsomal CLint
Value observed: 28
//
Structure notation: Cn1ccc2cc(CNC(=O)N3CC(COc4ccc(Cl)cc4)C3)cnc21
Readout kind: microsomal CLint
Value observed: 34

I = Cc1cc2cc(CNC(=O)N3CC4(CC(=O)c5cc(F)cc(F)c5O4)C3)ccc2[nH]1
II = O=C(NCc1cnc2[nH]c(Cl)cc2c1)N1CC(COc2ccc(C(F)(F)F)cc2)C1
Compare I and II and name the one whose reported microsomal CLint is smaller. Answer by stating the label of the chosen item.
I
